# Experimental target: Adenosine A2 receptor (Rattus norvegicus, UniProt P29276+P30543)
# Test: Inhibition of [3H]NECA binding to A2 adenosine receptor of PC12 cell membranes
# Setup conditions: pc-12
Parameter: IC50 (µM)
Numbers only here, please. The scale is µM.

CCCn1c(=O)c2nc(CNC(=O)c3cccc(S(=O)(=O)F)c3)[nH]c2n(CCC)c1=O :: 45

Request body: readout IC50, system Adenosine A2 receptor (Rattus norvegicus, UniProt P29276+P30543), query CCCn1c(=O)c2nc(C3CCCC3)[nH]c2n(CCCOC(=O)c2ccc(S(=O)(=O)F)cc2)c1=O . Return the value.
9

Request body: readout IC50, system Adenosine A2 receptor (Rattus norvegicus, UniProt P29276+P30543), query CCCn1c(=O)c2nc(CCCNC(=O)c3ccc(S(=O)(=O)F)cc3)[nH]c2n(CCC)c1=O . Return the value.
26
